// provenance: the supplement of paper PMC6757056

Please go through the items and note down their normalized RNA/DNA level without ligand (log10).
B1: library; a variant is named by its letters at N, in order (parent)
chain: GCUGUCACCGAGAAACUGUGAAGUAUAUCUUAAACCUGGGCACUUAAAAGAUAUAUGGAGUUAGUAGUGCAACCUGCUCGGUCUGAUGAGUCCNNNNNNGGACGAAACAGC

variants of: B1; assay: normalized RNA/DNA level without ligand (relative to sTRSVctl = 100) (log10 (% of sTRSVctl)); HEK293T; ligand: cyclic di-GMP (c-di-GMP-II aptamer); higher = less ribozyme self-cleavage, higher mRNA level; conditions: reporter: mCherry (pCS4076), ligand present: no
One number for each entry.

Respectfully, I request normalized RNA/DNA level without ligand (log10) for each entry included below.
1. AUUCUG
2. CCUCAG
3. GGAGCC
4. CAACUC
5. CUCCGU
6. CGAGUG
7. CAGCGC
8. CCUCGA

# output
1: 1.68; 2: 1.67; 3: 1.85; 4: 1.69; 5: 1.8; 6: 1.7; 7: 1.73; 8: 1.71

Respectfully, I request normalized RNA/DNA level without ligand (log10) for each entry included below.
1. CGGAAU
2. UUUCUG
3. AAGGCA

# output
1.34
1.8
1.63
